Cited source for all entries: patent US20100093776A1

- target entity: CDK1/cyclinB (Homo sapiens, UniProt P06493)
- Sequence (P06493 whole entry): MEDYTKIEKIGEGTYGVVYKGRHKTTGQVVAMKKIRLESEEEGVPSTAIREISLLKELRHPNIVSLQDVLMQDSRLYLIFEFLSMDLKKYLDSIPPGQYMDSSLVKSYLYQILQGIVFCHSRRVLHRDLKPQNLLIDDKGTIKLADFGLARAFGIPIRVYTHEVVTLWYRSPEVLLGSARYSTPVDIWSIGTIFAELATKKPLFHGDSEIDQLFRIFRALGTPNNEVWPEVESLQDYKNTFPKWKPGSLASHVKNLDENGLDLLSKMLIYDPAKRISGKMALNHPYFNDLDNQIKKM
- Sequence (P14635 whole entry partner): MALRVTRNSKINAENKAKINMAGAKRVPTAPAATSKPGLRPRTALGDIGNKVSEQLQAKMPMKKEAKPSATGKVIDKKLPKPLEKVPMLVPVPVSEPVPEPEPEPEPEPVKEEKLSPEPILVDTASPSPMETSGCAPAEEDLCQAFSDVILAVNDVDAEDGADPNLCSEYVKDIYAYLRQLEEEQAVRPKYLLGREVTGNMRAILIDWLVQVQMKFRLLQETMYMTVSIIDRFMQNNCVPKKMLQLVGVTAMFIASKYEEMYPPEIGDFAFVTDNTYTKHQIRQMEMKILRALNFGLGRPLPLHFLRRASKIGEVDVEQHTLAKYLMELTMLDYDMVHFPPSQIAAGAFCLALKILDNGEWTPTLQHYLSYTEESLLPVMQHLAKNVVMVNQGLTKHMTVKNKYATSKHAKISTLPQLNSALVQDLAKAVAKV
- test: CDK1/cyclinB IMAP fluorescence polarization kinase assay
- details: 52 μM ATP, two hours at room temperature
pIC50: −log10 of the molar value.
Quick list: pIC50 per entry.
experimental readout: pIC50

structure: CS(=O)(=O)c1cccc(Nc2nccc(-c3cccc4[nH]ccc34)n2)c1
experimental readout: pIC50
reported measurement: > 5.30
--
structure: CN(C)C(=O)Cn1ccc2c(-c3ccnc(Nc4cccc(Cl)c4)n3)cccc21
experimental readout: pIC50
reported measurement: 4.82 to 5.30
--
structure: OCCCn1ccc2c(-c3ccnc(Nc4cccc(Cl)c4)n3)cccc21
experimental readout: pIC50
reported measurement: 4.82 to 5.30
--
structure: NCCNC(=O)Cn1ccc2c(-c3ccnc(Nc4cccc(Cl)c4)n3)cccc21
experimental readout: pIC50
reported measurement: 4.82 to 5.30
--
structure: COc1cnc(Nc2cccc(S(N)(=O)=O)c2)nc1-c1cccc2[nH]ccc12
experimental readout: pIC50
reported measurement: > 5.30
--
structure: Clc1cccc(Nc2nccc(-c3cccc4[nH]ccc34)n2)c1
experimental readout: pIC50
reported measurement: > 5.30
--
structure: Cc1ccc2[nH]ccc2c1-c1ccnc(Nc2cccc(S(C)(=O)=O)c2)n1
experimental readout: pIC50
reported measurement: > 5.30
--
structure: CCn1ccc2c(-c3ccnc(Nc4cccc(Cl)c4)n3)cccc21
experimental readout: pIC50
reported measurement: > 5.30
--
structure: O=C(Cn1ccc2c(-c3ccnc(Nc4cccc(Cl)c4)n3)cccc21)NCc1ccccc1
experimental readout: pIC50
reported measurement: < 4.30
--
structure: Cc1cnc(Nc2cccc(S(C)(=O)=O)c2)nc1-c1cccc2[nH]ccc12
experimental readout: pIC50
reported measurement: > 5.30
--
structure: CC(C)CNC(=O)Cn1ccc2c(-c3ccnc(Nc4cccc(Cl)c4)n3)cccc21
experimental readout: pIC50
reported measurement: < 4.30
--
structure: CCNC(=O)Cn1ccc2c(-c3ccnc(Nc4cccc(Cl)c4)n3)cccc21
experimental readout: pIC50
reported measurement: < 4.30
--
structure: CNC(=O)Cn1ccc2c(-c3ccnc(Nc4cccc(Cl)c4)n3)cccc21
experimental readout: pIC50
reported measurement: > 5.30
